VALUE_TYPE: melting point

// for each compound in input: emit melting point
1. COc1ccc(NC(=O)C2CSC(c3ccc(OC)cc3)N2)cc1 (centres unmarked) [Compound 4e]
2. O=C(O)c1ccc(NC(=O)C2CSC(c3ccccc3O)N2)cc1 (centres unmarked) [Compound 1a]
3. O=C(Nc1ccc(O)cc1)C1CSC(c2ccc(O)cc2)N1 (centres unmarked) [Compound 3c]
4. O=C(O)c1ccc(NC(=O)C2CSC(c3ccccc3O)N2)cc1O (centres unmarked) [Compound 1d]

Result:
["129 to 131 °C", "135 to 136 °C", "174 to 176 °C", "134 to 135 °C"]

Please report melting point for every entry that follows.
1. O=C(O)c1ccc(NC(=O)C2CSC(c3ccc(O)cc3)N2)cc1 (centres unmarked) [Compound 3a]
2. COc1ccc(NC(=O)C2CSC(c3ccc(O)cc3)N2)cc1 (centres unmarked) [Compound 3e]
3. COc1ccc(C2NC(C(=O)Nc3ccc(C(=O)O)c(O)c3)CS2)cc1 (centres unmarked) [Compound 4d]
4. O=C(C1CSC(c2ccccc2O)N1)N1CCOCC1 (centres unmarked) [Compound 1b]
5. O=C(Nc1ccc(O)cc1)C1CSC(c2ccccc2O)N1 (centres unmarked) [Compound 1c]
6. COc1ccccc1C1NC(C(=O)Nc2ccc(C(=O)O)cc2)CS1 (centres unmarked) [Compound 2a]
7. COc1ccc(NC(=O)C2CSC(c3ccccc3O)N2)cc1 (centres unmarked) [Compound 1e]

Result:
["164 to 166 °C", "115 to 117 °C", "109 to 110 °C", "128 to 129 °C", "109 to 111 °C", "116 to 117 °C", "83 to 84 °C"]

Hi, could you look up melting point for each item in my list?
1. COc1ccc(C2NC(C(=O)Nc3ccc(C(=O)O)cc3)CS2)cc1 (centres unmarked) [Compound 4a]
2. O=C(O)c1ccc(NC(=O)C2CSC(c3ccc(O)cc3)N2)cc1O (centres unmarked) [Compound 3d]
3. COc1ccccc1C1NC(C(=O)Nc2ccc(C(=O)O)c(O)c2)CS1 (centres unmarked) [Compound 2d]

Result:
1. 94 to 95 °C
2. 130 to 131 °C
3. 112 to 113 °C
